Biological target: Recombinant KAT6A/MOZ (488-778) protein (Homo sapiens (Human))
Sequence (Q92794 488-778): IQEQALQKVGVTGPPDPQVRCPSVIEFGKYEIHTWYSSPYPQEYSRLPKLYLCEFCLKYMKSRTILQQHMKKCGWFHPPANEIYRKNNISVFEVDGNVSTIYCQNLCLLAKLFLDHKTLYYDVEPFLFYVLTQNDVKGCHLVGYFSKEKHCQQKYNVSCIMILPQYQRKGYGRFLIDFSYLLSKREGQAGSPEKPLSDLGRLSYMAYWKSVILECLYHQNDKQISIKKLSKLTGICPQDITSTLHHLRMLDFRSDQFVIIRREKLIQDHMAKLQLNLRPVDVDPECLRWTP
Test: KAT6A AlphaLISA Inhibition Screening Assay
Type: biochemical
Conditions: read-out: Average Kat6A % inhibition @ 1 μM; 1 μM test compound
compounds and their reported inhibition at 1 µM

Here's what some known entries look like.
Compound	Recorded value
C#Cc1ccc(OC)c(S(=O)(=O)Nc2noc3cc(Cn4cc(CNC(=O)OC)cn4)cc(OC)c23)c1 [Syn. Ex. 112]	70%
C=C(F)C(=O)N(C)Cc1cnn(Cc2cc(OC)c3c(NS(=O)(=O)c4cc(CC)ccc4OC)noc3c2)c1 [Syn. Ex. 39]	92%
CCc1ccc(OCC(=N)NO)c(S(=O)(=O)Nc2noc3cc(Cn4cc(CNC(=O)OC)cn4)cc(OC)c23)c1 [Syn. Ex. 115]	100%
COC(=O)NCc1cnn(Cc2cc(OC(F)F)c3c(NS(=O)(=O)c4c(OC)cccc4OC)noc3c2)c1 [Syn. Ex. 50]	98%
CCc1ccc(OC)c(S(=O)(=O)Nc2noc3cc(Oc4nc(CNC(=O)OC)cs4)cc(OC)c23)c1 [Syn. Ex. 104]	25%

Which inhibition at 1 µM is listed for C#CC(=O)N1Cc2cnn(Cc3cc(OC)c4c(NS(=O)(=O)c5cc(OC)ccc5OC)noc4c3)c2C1 [Syn. Ex. 4] ? 100%

Likewise for C=C(Cl)C(=O)NCc1cnn(Cc2cc(OC)c3c(NS(=O)(=O)c4cc(CC)ccc4OC)noc3c2)c1 [Syn. Ex. 35] ? 100%
